tested on: HL-60 (ATCC CCL-240) cells; assay: Viability and apoptosis of HL-60 cells (Trypan Blue, optical microscope); assay type: cell-based; conditions: Homo sapiens, 24 hours, Trypan Blue, read-out: Viability50 (concentration that results in a viability of 50%)
QUANTITY_KIND: pIC50
On this scale, pIC50 is minus log10 of a concentration expressed in M (mol/L).

Consider COC(=O)/C=C/C(=O)OC1C=CC(=O)C1OC(=O)/C=C/C(=O)OC (stereo not shown) . Its measured pIC50 is 5.54

Consider CC(C)C(=O)OC1C=CC(=O)C1OC(=O)C(C)C (stereo not shown) . Its measured pIC50 is 5.06

Consider COC(=O)/C=C\C(=O)OC1C=CC(=O)C1OC(=O)CCC(=O)OC (stereo not shown) . Its measured pIC50 is 5.47

Consider COCC(=O)OC1C=CC(=O)C1OC(=O)COC (stereo not shown) . Its measured pIC50 is 4.85
